# reported inhibition at 1 µM; entries follow
# Target Or Test System: panel of 255 wild-type kinases (Homo sapiens, UniProt Q15375)
# Sequence (Q15375 28-998): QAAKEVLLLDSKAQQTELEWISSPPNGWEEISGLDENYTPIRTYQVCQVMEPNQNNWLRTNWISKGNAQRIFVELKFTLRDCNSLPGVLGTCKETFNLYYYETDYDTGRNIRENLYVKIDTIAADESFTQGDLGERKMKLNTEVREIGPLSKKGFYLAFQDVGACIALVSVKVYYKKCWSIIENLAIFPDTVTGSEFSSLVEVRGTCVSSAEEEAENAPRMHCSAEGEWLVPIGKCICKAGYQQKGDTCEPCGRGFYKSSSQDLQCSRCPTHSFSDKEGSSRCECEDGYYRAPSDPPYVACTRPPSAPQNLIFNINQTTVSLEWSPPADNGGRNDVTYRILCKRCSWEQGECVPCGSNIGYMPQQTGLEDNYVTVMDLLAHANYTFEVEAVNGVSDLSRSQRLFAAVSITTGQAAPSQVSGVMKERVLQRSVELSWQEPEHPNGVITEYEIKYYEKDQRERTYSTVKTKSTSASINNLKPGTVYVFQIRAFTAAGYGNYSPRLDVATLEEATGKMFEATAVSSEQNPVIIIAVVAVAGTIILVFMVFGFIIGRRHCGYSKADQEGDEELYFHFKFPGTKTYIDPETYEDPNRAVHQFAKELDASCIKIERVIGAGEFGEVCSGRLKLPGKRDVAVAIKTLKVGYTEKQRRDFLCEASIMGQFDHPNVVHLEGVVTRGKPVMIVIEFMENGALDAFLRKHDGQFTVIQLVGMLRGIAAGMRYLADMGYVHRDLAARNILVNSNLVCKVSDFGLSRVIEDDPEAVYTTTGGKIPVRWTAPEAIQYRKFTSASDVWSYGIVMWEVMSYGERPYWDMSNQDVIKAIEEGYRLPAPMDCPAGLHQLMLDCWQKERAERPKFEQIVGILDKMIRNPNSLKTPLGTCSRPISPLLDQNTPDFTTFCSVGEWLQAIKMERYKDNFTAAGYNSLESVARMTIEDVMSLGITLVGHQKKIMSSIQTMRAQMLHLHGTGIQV
# Run Description: Kinase panel profiling at 1 µmol/L (MSA or IMAP), percentage inhibition
# Type: biochemical
# Test Conditions: kinase EPHA7; 1 µmol/L single concentration; read-out: %-inhibition at 1 µmol/L, EPHA7
Provide the reading as a plain figure in %.

Consider the worked cases shown below.
Molecule: C[C@H](Nc1ncnc2nc[nH]c12)c1cc2cccc(Cl)c2c(=O)n1-c1ccccc1 [duvelisib]
Target Or Test System: panel of 255 wild-type kinases (Homo sapiens, UniProt Q15375)
inhibition at 1 µM (%): -2.14
--
Molecule: C=CC(=O)N1CCC([C@@H]2CCNc3c(C(N)=O)c(-c4ccc(Oc5ccccc5)cc4)nn32)CC1 [zanubrutinib]
Target Or Test System: panel of 255 wild-type kinases (Homo sapiens, UniProt Q15375)
inhibition at 1 µM (%): 0.758
--
Molecule: CN1CCN(c2ccc(C(=O)Nc3n[nH]c4ccc(Cc5cc(F)cc(F)c5)cc34)c(NC3CCOCC3)c2)CC1 [entrectinib]
Target Or Test System: panel of 255 wild-type kinases (Homo sapiens, UniProt Q15375)
inhibition at 1 µM (%): 44

q: What does the record list as inhibition at 1 µM for Cn1cc(-c2cc3c(N4CCN(c5ncc([C@@](C)(N)c6ccc(F)cc6)cn5)CC4)ncnn3c2)cn1 [avapritinib] ?
a: 13

q: What does the record list as inhibition at 1 µM for COc1ccc(CN2C3CC2CN(c2ccc(-c4cc(OCC(C)(C)O)cn5ncc(C#N)c45)cn2)C3)cn1 [selpercatinib] ?
a: 96

###

# Target Or Test System: panel of 255 wild-type kinases (Homo sapiens)
# Run Description: Kinase panel profiling at 1 µmol/L (MSA or IMAP), percentage inhibition
# Type: biochemical
# Test Conditions: kinase PKN1; 1 µmol/L single concentration; read-out: %-inhibition at 1 µmol/L, PKN1
# reported inhibition at 1 µM; entries follow
Provide the reading as a plain figure in %.

Smiles Str: COC(=O)N[C@@H](C)CNc1nccc(-c2cn(C(C)C)nc2-c2cc(Cl)cc(NS(C)(=O)=O)c2F)n1
Measured Metric: inhibition at 1 µM
Result Unit: %
Reported Value: 6
--
Smiles Str: COc1cc2ncnc(Nc3ccc(F)c(Cl)c3)c2cc1NC(=O)/C=C/CN1CCCCC1
Measured Metric: inhibition at 1 µM
Result Unit: %
Reported Value: 16
--
Smiles Str: Cn1cnc2c(F)c(Nc3ccc(Br)cc3Cl)c(C(=O)NOCCO)cc21
Measured Metric: inhibition at 1 µM
Result Unit: %
Reported Value: 10
--
Smiles Str: COc1ccc(CN2C3CC2CN(c2ccc(-c4cc(OCC(C)(C)O)cn5ncc(C#N)c45)cn2)C3)cn1
Measured Metric: inhibition at 1 µM
Result Unit: %
Reported Value: 9
--
Smiles Str: Cc1nc(NC(=O)N2CCC[C@H]2C(N)=O)sc1-c1ccnc(C(C)(C)C(F)(F)F)c1
Measured Metric: inhibition at 1 µM
Result Unit: %
Reported Value: 8
--
Smiles Str: CCn1c(=O)c(-c2cc(NC(=O)Nc3ccccc3)c(F)cc2Br)cc2cnc(NC)cc21
Measured Metric: inhibition at 1 µM
Result Unit: %
Reported Value: 10
--
Smiles Str: FC(F)(F)c1ccc(CNc2ccc(Cc3c[nH]c4ncc(Cl)cc34)cn2)cn1
Measured Metric: inhibition at 1 µM
Result Unit: %
Reported Value: -4.55
--
Smiles Str: C=CC(=O)N1CCC([C@@H]2CCNc3c(C(N)=O)c(-c4ccc(Oc5ccccc5)cc4)nn32)CC1
Measured Metric: inhibition at 1 µM
Result Unit: %
Reported Value: -11
--
Smiles Str: Cc1cc(Nc2ncnc3ccc(NC4=NC(C)(C)CO4)cc23)ccc1Oc1ccn2ncnc2c1
Measured Metric: inhibition at 1 µM
Result Unit: %
Reported Value: 18
--
Smiles Str: Cn1cnc2c(F)c(Nc3ccc(Br)cc3F)c(C(=O)NOCCO)cc21
Measured Metric: inhibition at 1 µM
Result Unit: %
Reported Value: 6

q: What does the record list as inhibition at 1 µM for CCN1C(=O)N(c2c(F)c(OC)cc(OC)c2F)Cc2cnc3[nH]c(CN4CCOCC4)cc3c21 ?
a: 10

q: What does the record list as inhibition at 1 µM for CN1CCN(c2ccc(C(=O)Nc3n[nH]c4ccc(Cc5cc(F)cc(F)c5)cc34)c(NC3CCOCC3)c2)CC1 ?
a: 64
